# assay-system: T1, Factor VIIIa (recombinant FVIII, Kogenate FS, activated with alpha-thrombin) (UniProt P00451 20-2351)
# T1 construct: also called FVIIIa
# T1 sequence (looked up): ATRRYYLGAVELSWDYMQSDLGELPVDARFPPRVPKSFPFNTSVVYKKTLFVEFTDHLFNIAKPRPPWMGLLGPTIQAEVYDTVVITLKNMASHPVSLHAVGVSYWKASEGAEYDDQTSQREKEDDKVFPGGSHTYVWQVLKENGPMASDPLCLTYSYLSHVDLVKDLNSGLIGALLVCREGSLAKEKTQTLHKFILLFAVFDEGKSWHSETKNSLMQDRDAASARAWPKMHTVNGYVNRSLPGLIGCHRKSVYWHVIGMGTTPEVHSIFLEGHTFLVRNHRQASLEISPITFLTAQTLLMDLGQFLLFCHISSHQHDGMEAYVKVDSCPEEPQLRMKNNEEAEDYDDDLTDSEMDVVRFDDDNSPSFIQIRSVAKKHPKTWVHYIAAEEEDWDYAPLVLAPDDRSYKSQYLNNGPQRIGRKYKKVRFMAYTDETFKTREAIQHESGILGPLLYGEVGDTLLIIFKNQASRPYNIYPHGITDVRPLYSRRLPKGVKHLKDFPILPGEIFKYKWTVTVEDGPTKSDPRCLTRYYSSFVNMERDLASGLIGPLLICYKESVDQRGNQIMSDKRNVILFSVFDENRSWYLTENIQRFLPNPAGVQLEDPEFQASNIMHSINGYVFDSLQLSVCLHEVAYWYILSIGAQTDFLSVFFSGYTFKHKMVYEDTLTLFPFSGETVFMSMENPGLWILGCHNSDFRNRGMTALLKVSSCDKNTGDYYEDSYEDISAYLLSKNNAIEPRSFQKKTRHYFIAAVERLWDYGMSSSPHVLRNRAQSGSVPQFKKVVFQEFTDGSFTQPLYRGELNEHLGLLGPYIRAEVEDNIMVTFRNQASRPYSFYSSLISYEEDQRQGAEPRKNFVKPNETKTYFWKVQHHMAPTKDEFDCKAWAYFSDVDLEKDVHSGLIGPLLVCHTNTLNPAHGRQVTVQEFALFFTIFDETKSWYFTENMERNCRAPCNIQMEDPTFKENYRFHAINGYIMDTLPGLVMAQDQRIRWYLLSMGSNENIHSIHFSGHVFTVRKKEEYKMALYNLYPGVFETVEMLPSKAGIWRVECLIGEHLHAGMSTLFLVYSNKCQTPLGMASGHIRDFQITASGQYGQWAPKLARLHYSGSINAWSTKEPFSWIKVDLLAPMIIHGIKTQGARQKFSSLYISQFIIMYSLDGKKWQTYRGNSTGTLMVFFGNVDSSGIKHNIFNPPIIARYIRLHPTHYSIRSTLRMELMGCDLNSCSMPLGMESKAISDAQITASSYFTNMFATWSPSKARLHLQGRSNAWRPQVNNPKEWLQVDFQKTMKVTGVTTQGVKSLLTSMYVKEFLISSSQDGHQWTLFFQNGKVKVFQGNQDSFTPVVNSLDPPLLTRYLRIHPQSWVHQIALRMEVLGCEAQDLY
# assay: functional cofactor affinity KD-app: fluorogenic FX activation (Xase) assay, FVIIIa titrated, PC/PS vesicles, saturating FX
reported-endpoint: pKd
In plain terms, pKd is the concentration in mol/L turned into minus its base-10 logarithm.

Completed entries (count: 3):
Please look up its pKd: FIXa-K228N/K247N/N249S/R318Y/R338E/T343R/E410N (enzyme, also called K63N/K82N/N84S/R150Y/R170E/T175R/E240N (chymotrypsin numbering)) chain 1: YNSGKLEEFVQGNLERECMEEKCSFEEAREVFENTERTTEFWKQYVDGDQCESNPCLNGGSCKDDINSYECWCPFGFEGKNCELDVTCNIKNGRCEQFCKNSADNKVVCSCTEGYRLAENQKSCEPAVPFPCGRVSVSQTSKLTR chain 2: VVGGEDAKPGQFPWQVVLNGKVDAFCGGSIVNEKWIVTAAHCVETGVNITVVAGEHNIEETEHTEQNRSVIRIIPHHNYNAAINKYNHDIALLELDEPLVLNSYVTPICIADKEYTNIFLKFGSGYVSGWGRVFHKGYSALVLQYLRVPLVDRATCLESTKFRIYNNMFCAGFHEGGRDSCQGDSGGPHVTEVEGTSFLTGIISWGEECAMKGKYGIYTKVSRYVNWIKNKTKLT
8.11

Report pKd for FIXa-K247N/N249S/R338E/T343R/E410N (enzyme, also called K82N/N84S/R170E/T175R/E240N (chymotrypsin numbering)) chain 1: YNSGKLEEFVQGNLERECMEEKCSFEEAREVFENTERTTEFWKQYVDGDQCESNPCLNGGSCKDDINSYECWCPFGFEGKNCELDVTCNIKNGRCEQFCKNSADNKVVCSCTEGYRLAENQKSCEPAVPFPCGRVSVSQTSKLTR chain 2: VVGGEDAKPGQFPWQVVLNGKVDAFCGGSIVNEKWIVTAAHCVETGVKITVVAGEHNIEETEHTEQNRSVIRIIPHHNYNAAINKYNHDIALLELDEPLVLNSYVTPICIADKEYTNIFLKFGSGYVSGWGRVFHKGRSALVLQYLRVPLVDRATCLESTKFRIYNNMFCAGFHEGGRDSCQGDSGGPHVTEVEGTSFLTGIISWGEECAMKGKYGIYTKVSRYVNWIKNKTKLT please.
7.85

What does the data say about its pKd? Entry: FIXa-Y155F/K247N/N249S/R318Y/R338E/T343R/E410N (enzyme) chain 1: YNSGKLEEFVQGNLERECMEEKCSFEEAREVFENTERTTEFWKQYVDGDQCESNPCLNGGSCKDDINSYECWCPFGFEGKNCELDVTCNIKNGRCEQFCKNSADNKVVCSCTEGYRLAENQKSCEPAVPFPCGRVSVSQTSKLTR chain 2: VVGGEDAKPGQFPWQVVLNGKVDAFCGGSIVNEKWIVTAAHCVETGVKITVVAGEHNIEETEHTEQNRSVIRIIPHHNYNAAINKYNHDIALLELDEPLVLNSYVTPICIADKEYTNIFLKFGSGYVSGWGRVFHKGYSALVLQYLRVPLVDRATCLESTKFRIYNNMFCAGFHEGGRDSCQGDSGGPHVTEVEGTSFLTGIISWGEECAMKGKYGIYTKVSRYVNWIKNKTKLT
7.86

Continue with the binder presented below.
Value lookup for pKd; key = FIXa-Y155F/R338E/T343R/E410N (enzyme) chain 1: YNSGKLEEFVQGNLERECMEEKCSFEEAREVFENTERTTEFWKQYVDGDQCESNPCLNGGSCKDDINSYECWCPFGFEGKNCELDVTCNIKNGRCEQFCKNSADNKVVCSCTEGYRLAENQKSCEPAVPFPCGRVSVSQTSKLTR chain 2: VVGGEDAKPGQFPWQVVLNGKVDAFCGGSIVNEKWIVTAAHCVETGVKITVVAGEHNIEETEHTEQKRNVIRIIPHHNYNAAINKYNHDIALLELDEPLVLNSYVTPICIADKEYTNIFLKFGSGYVSGWGRVFHKGRSALVLQYLRVPLVDRATCLESTKFRIYNNMFCAGFHEGGRDSCQGDSGGPHVTEVEGTSFLTGIISWGEECAMKGKYGIYTKVSRYVNWIKNKTKLT
8.07
